This collection of values is drawn from patent US20230295310A1.

biological target: T1, human CD3 expressed on cells (human, UniProt P07766 23-207; P04234 22-171; P09693 23-182); test: flow cytometry, 25 nM
T1 construct: whole, on cells; CD3 complex on Jurkat cells and on human primary T cells
T1 sequence (P07766 23-207, chain 1 of 3): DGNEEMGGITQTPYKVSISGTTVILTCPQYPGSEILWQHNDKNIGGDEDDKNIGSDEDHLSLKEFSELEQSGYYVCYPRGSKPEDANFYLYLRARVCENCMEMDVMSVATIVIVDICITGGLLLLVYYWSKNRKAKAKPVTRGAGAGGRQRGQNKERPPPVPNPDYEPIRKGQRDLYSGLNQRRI
T1 sequence (P04234 22-171, chain 2 of 3): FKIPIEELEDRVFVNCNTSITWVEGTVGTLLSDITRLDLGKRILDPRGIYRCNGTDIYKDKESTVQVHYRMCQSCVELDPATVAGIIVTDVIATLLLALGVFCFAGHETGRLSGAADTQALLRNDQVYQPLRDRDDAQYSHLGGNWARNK
T1 sequence (P09693 23-182, chain 3 of 3): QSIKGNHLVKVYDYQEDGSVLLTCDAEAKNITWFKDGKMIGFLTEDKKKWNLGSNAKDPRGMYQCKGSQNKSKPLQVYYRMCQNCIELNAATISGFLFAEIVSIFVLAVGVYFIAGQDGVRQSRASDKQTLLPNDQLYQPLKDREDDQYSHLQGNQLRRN

# binder, Jurkat Cell Binding (FOI)
rows = [
    ("mAb 110 (antibody, V domains shown) VH: QVQLVESGGGVVQPGRSLRLSCAASGFTFRSYGMHWVRQAPGKGLEWVAIIWYNGNKKDYVDSVKGRFTISRDNSKNMLYLQMNSLRAEDTALYYCARGPGYNWFDPWGQGTLVTVSS VL: DIQMTQSPPSLSASVGDRVTITCRASQRISSYLNWYQQRPGKAPKLLIYAASSLQSGVPSRFSGSGSGTDFTLTISSLQPEDFATYYCQQTDSFPLTFGGGTKVEII", 197),
    ("mAb 81 (antibody, V domains shown) VH: QVQLAESGGGVVQPGRSLRLSCAASGFTFSGYGMHWVRQAPGKGLDWVAIIYYDGKNKYYADSVKGRFTISRDNSKNTLYLQMNSLRAEDTAVYYCARGGGYNWFDPWGQGTLVTVSS VL: DIQMTQSPSSLSASVGDRVTITCRPSQTISNYLNWYQQDPGKAPKLLIYAASSLQSGVPSRFSGSGSGTDFTLTISSLQPEDFATYYCQQSYSTPITFGRGTRLEIK", 165),
    ("mAb 69 (antibody, V domains shown) VH: QMLLVESGGGVVQPGRSLTLSCAASGFTFRSYGMHWVRQAPGRGLEWVAIIWYDGSTEYYADSVKGRFTISRANSKNMLYLQMNSLRAEDTAVYYCAAFDYTNSFDIWGQGTMVTVSS VL: DIVVTQTPLSSPVTLGQPASISCRSSQRFVHSDGNTYLSWLQQRPGQPPRLLIYKISNRISGVPDRFSGSGAGTDFKLKISRVEAEDVGIYYCMQATQFPYTFGQGTKLEIK", 145),
]
